assay: Intrinsic clearance in rat liver microsomes; type: ADME, Microsome; details: read-out: CLH
microsomal CLint: recorded values

Cpd Smiles: CN(c1nnc(-c2sc3ccc(C#N)cc3c2Cl)s1)C1CC(C)(C)NC(C)(C)C1
microsomal CLint: < 25 µL/min/mg
--
Cpd Smiles: CN(c1ccc(-c2cc3ccccc3s2)nn1)C1CC(C)(C)NC(C)(C)C1
microsomal CLint: 23 µL/min/mg
--
Cpd Smiles: CN(c1nnc(-c2ccc(-c3cn[nH]c3)cc2F)s1)C1CC(C)(C)NC(C)(C)C1
microsomal CLint: 59 µL/min/mg
--
Cpd Smiles: CN(c1nnc(-c2cc3ccccc3s2)s1)C1CC(C)(C)NC(C)(C)C1
microsomal CLint: < 3 µL/min/mg
--
Cpd Smiles: CN(c1nnc(-c2cc(F)c(-c3cn[nH]c3)cc2F)s1)C1CC(C)(C)NC(C)(C)C1
microsomal CLint: 48 µL/min/mg
--
Cpd Smiles: CN(c1nnc(-c2cc(F)c(-c3cn[nH]c3)cc2Cl)s1)C1CC(C)(C)NC(C)(C)C1
microsomal CLint: 54 µL/min/mg
--
Cpd Smiles: CN(c1nnc(-c2ccc(-c3cn[nH]c3)c(F)c2F)s1)C1CC(C)(C)NC(C)(C)C1
microsomal CLint: 46 µL/min/mg
--
Cpd Smiles: CN(c1nnc(-c2ccc(-c3cn[nH]c3)cc2Cl)s1)C1CC(C)(C)NC(C)(C)C1
microsomal CLint: 24 µL/min/mg
--
Cpd Smiles: CN(c1nnc(-c2sc3ccccc3c2Cl)s1)C1CC(C)(C)NC(C)(C)C1
microsomal CLint: 20 µL/min/mg
--
Cpd Smiles: CN(c1nnc(-c2cc3cc(C#N)ccc3s2)s1)C1CC(C)(C)NC(C)(C)C1
microsomal CLint: 12 µL/min/mg

* * *

experiment: Drug uptake in Sprague-Dawley rat brain at 3 mg/kg, po measured after 7 hrs by HPLC-MS/MS analysis; format: ADME, organism-based; settings: read-out: Drug uptake
# concentration at 7 h annotations

Cpd Smiles: CN(c1nnc(-c2ccc(-c3cn[nH]c3)c(F)c2F)s1)C1CC(C)(C)NC(C)(C)C1
concentration at 7 h / nM: 498
--
Cpd Smiles: CN(c1nnc(-c2ccc(-c3cn[nH]c3)cc2F)s1)C1CC(C)(C)NC(C)(C)C1
concentration at 7 h / nM: 66
--
Cpd Smiles: CN(c1nnc(-c2cc(F)c(-c3cn[nH]c3)cc2F)s1)C1CC(C)(C)NC(C)(C)C1
concentration at 7 h / nM: 141
--
Cpd Smiles: CN(c1nnc(-c2ccc(-c3cn[nH]c3)cc2Cl)s1)C1CC(C)(C)NC(C)(C)C1
concentration at 7 h / nM: 240
--
Cpd Smiles: CN(c1nnc(-c2cc(F)c(-c3cn[nH]c3)cc2Cl)s1)C1CC(C)(C)NC(C)(C)C1
concentration at 7 h / nM: 185

* * *

test: Drug uptake in SMN C/+ allele mouse plasma at 50 mg/kg, po measured after 4 hrs; assay type: ADME, organism-based

Cpd Smiles: CN(c1nnc(-c2ccc(-c3cn[nH]c3)c(F)c2F)s1)C1CC(C)(C)NC(C)(C)C1
concentration at 4 h [µM]: 3.6

* * *

test: AUC (extrapolated) in Sprague-Dawley rat at 3 mg/kg, po measured up to 7 hrs by HPLC-MS/MS analysis; format: ADME, organism-based; set-up: route oral, dose 3 mg/kg, time <=7; details: in vivo
Attribute Measured: AUC at 7 h (µM·h)

Cpd Smiles: CN(c1nnc(-c2ccc(-c3cnn(C)c3)cc2O)s1)C1CC(C)(C)NC(C)(C)C1
Value Units: µM·h
Recorded Number: 0.554
--
Cpd Smiles: CN(c1nnc(-c2ccc(-c3ccn(C)c(=O)c3)cc2O)s1)C1CC(C)(C)NC(C)(C)C1
Value Units: µM·h
Recorded Number: 0.227
--
Cpd Smiles: COc1cc(-n2cccn2)ccc1-c1nnc(N(C)C2CC(C)(C)NC(C)(C)C2)s1
Value Units: µM·h
Recorded Number: 0.895

* * *

experiment: Volume of distribution at steady state in Sprague-Dawley rat at 1 mg/kg, iv and 3 mg/kg, po measured up to 7 hrs by HPLC-MS/MS analysis; type: ADME, organism-based; settings: in vivo, read-out: Vdss
Attribute Measured: Vd (L/kg)

Cpd Smiles: CN(c1nnc(-c2ccc(-c3ccn(C)c(=O)c3)cc2O)s1)C1CC(C)(C)NC(C)(C)C1
Attribute Measured: Vd
Recorded Number: 10.7

Cpd Smiles: CN(c1nnc(-c2ccc(-c3cnn(C)c3)cc2O)s1)C1CC(C)(C)NC(C)(C)C1
Attribute Measured: Vd
Recorded Number: 7

Cpd Smiles: COc1cc(-n2cccn2)ccc1-c1nnc(N(C)C2CC(C)(C)NC(C)(C)C2)s1
Attribute Measured: Vd
Recorded Number: 10.9

* * *

Entries annotated with measured Papp B→A
test: Apparent permeability from basolateral to apical side in MDCK-MDR1 cells; format: ADME, cell-based, Canis lupus familiaris; settings: dog
Attribute Measured: Papp B→A (×10⁻⁶ cm/s)

Cpd Smiles: CN(c1nnc(-c2c(O)cc(-c3cn[nH]c3)c(F)c2F)s1)C1CC(C)(C)NC(C)(C)C1
Recorded Number: 23
//
Cpd Smiles: CN(c1nnc(-c2ccc(-c3cn[nH]c3)cc2Cl)s1)C1CC(C)(C)NC(C)(C)C1
Recorded Number: 12
//
Cpd Smiles: CN(c1nnc(-c2ccc(-c3cn[nH]c3)c(F)c2F)s1)C1CC(C)(C)NC(C)(C)C1
Recorded Number: 8
//
Cpd Smiles: CN(c1nnc(-c2cc(F)c(-c3cn[nH]c3)cc2Cl)s1)C1CC(C)(C)NC(C)(C)C1
Recorded Number: 23
//
Cpd Smiles: CN(c1nnc(-c2c(O)cc(-c3cn[nH]c3)cc2F)s1)C1CC(C)(C)NC(C)(C)C1
Recorded Number: 41
//
Cpd Smiles: CN(c1nnc(-c2ccc(-c3cn[nH]c3)cc2F)s1)C1CC(C)(C)NC(C)(C)C1
Recorded Number: 15
//
Cpd Smiles: CN(c1nnc(-c2cc(F)c(-c3cn[nH]c3)cc2F)s1)C1CC(C)(C)NC(C)(C)C1
Recorded Number: 16

* * *

experiment: Apparent permeability from apical to basolateral side in MDCK-MDR1 cells; assay type: ADME, cell-based, Canis lupus familiaris; conditions: dog
Property: Papp A→B; scope: individual molecules
Attribute Measured: Papp A→B (×10⁻⁶ cm/s)

Cpd Smiles: CN(c1nnc(-c2c(O)cc(-c3cn[nH]c3)c(F)c2F)s1)C1CC(C)(C)NC(C)(C)C1
Value Units: ×10⁻⁶ cm/s
Recorded Number: 8

Cpd Smiles: CN(c1nnc(-c2cc(F)c(-c3cn[nH]c3)cc2F)s1)C1CC(C)(C)NC(C)(C)C1
Value Units: ×10⁻⁶ cm/s
Recorded Number: 3

Cpd Smiles: CN(c1nnc(-c2ccc(-c3cn[nH]c3)cc2F)s1)C1CC(C)(C)NC(C)(C)C1
Value Units: ×10⁻⁶ cm/s
Recorded Number: 4

Cpd Smiles: CN(c1nnc(-c2ccc(-c3cn[nH]c3)cc2Cl)s1)C1CC(C)(C)NC(C)(C)C1
Value Units: ×10⁻⁶ cm/s
Recorded Number: 3

Cpd Smiles: CN(c1nnc(-c2ccc(-c3cn[nH]c3)c(F)c2F)s1)C1CC(C)(C)NC(C)(C)C1
Value Units: ×10⁻⁶ cm/s
Recorded Number: 3

Cpd Smiles: CN(c1nnc(-c2c(O)cc(-c3cn[nH]c3)cc2F)s1)C1CC(C)(C)NC(C)(C)C1
Value Units: ×10⁻⁶ cm/s
Recorded Number: 10

Cpd Smiles: CN(c1nnc(-c2cc(F)c(-c3cn[nH]c3)cc2Cl)s1)C1CC(C)(C)NC(C)(C)C1
Value Units: ×10⁻⁶ cm/s
Recorded Number: 4

* * *

assay: Solubility of the compound at pH 6.8 by high-throughput miniaturized shake flask solubility assay; type: physicochemical; settings: buffer
Attribute Measured: solubility thermodynamic (µM)

Cpd Smiles: CN(c1nnc(-c2ccc(-c3cn[nH]c3)cc2Cl)s1)C1CC(C)(C)NC(C)(C)C1
Attribute Measured: solubility thermodynamic
Value Units: µM
Qualifier: =
Recorded Number: 44000
--
Cpd Smiles: CN(c1nnc(-c2c(O)cc(-c3cn[nH]c3)cc2Cl)s1)C1CC(C)(C)NC(C)(C)C1
Attribute Measured: solubility thermodynamic
Value Units: µM
Qualifier: =
Recorded Number: 220
--
Cpd Smiles: CN(c1nnc(-c2cc3cc(C#N)ccc3s2)s1)C1CC(C)(C)NC(C)(C)C1
Attribute Measured: solubility thermodynamic
Value Units: µM
Qualifier: =
Recorded Number: 170
--
Cpd Smiles: CN(c1nnc(-c2c(O)cc(-c3cn[nH]c3)c(F)c2F)s1)C1CC(C)(C)NC(C)(C)C1
Attribute Measured: solubility thermodynamic
Value Units: µM
Qualifier: =
Recorded Number: 150
--
Cpd Smiles: CN(c1nnc(-c2sc3ccc(C#N)cc3c2Cl)s1)C1CC(C)(C)NC(C)(C)C1
Attribute Measured: solubility thermodynamic
Value Units: µM
Qualifier: =
Recorded Number: 51
--
Cpd Smiles: CN(c1nnc(-c2sc3ccccc3c2Cl)s1)C1CC(C)(C)NC(C)(C)C1
Attribute Measured: solubility thermodynamic
Value Units: µM
Qualifier: =
Recorded Number: 240
--
Cpd Smiles: CN(c1nnc(-c2ccc(-c3cn[nH]c3)cc2F)s1)C1CC(C)(C)NC(C)(C)C1
Attribute Measured: solubility thermodynamic
Value Units: µM
Qualifier: >
Recorded Number: 1000
--
Cpd Smiles: CN(c1nnc(-c2cc(F)c(-c3cn[nH]c3)cc2Cl)s1)C1CC(C)(C)NC(C)(C)C1
Attribute Measured: solubility thermodynamic
Value Units: µM
Qualifier: =
Recorded Number: 34
--
Cpd Smiles: CN(c1nnc(-c2cc3ccccc3s2)s1)C1CC(C)(C)NC(C)(C)C1
Attribute Measured: solubility thermodynamic
Value Units: µM
Qualifier: >
Recorded Number: 1000
